Test system: human Factor XI mRNA
Assay Procedure: Dose-dependent inhibition in HepG2 cells, electroporation (Example 5)
Format: cell-based
Details: 10000 nM, approx. 16 h, relative to untreated control cells
Measure: percent inhibition of human Factor XI mRNA

Look up percent inhibition of human Factor XI mRNA: 416850 (antisense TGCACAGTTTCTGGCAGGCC; 5-10-5 gapmer, wing sugar chemistry not given here, further chemistry not given here) [compound 416850]
93%

One more substance: 416825 (antisense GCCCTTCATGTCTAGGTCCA; 5-10-5 gapmer, wing sugar chemistry not given here, further chemistry not given here) [compound 416825]
96%

Repeat with 416925 (antisense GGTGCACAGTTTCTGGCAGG; 3-14-3 chimeric gapmer, wing sugar chemistry not given here, further chemistry not given here) [compound 416925]
95%
